Reference source: ChEMBL document CHEMBL1201862

- System: PC-3
- Procedure summary: NCI tumour cell line growth inhibition, 48 h
The source made the active and inactive calls. Rule as the data show it: active = GI50 up to about 1.1 µM and inactive = higher.
Property name: GI50

Reference set, count: 2
CN1C2CC(=O)CC1[C@@H]1OC(c3ccccc3)O[C@H]21 (stereo partly drawn) :: > 100 µM (inactive)
Cc1ccsc1/C=N/Nc1cnccn1 :: > 100 µM (inactive)

Proceeding to the next compound to report its GI50.
Kindly note the recorded GI50 for CSc1c(C)[n+]([O-])c2cc(Cl)c(Cl)cc2[n+]1[O-] , which is 18.6 µM (inactive)

====

- Test system: OVCAR-8
- Procedure summary: NCI tumour cell line growth inhibition, 48 h
Active and inactive are the calls of the source. Rule as the data show it: active = GI50 up to about 1.1 µM and inactive = higher.
Pick one and only one: active, inactive

CC(=O)OC[C@H]1On2nnnc2[C@H](OC(C)=O)[C@@H](OC(C)=O)[C@@H]1OC(C)=O :: inactive
Cc1nc(-n2nc(-c3ccccc3)cc2-c2ccccc2)sc1C(=O)CC(=O)C(=O)Nc1ccc(Cl)c(Cl)c1 :: inactive
O=c1[nH]c(=O)n(C2CC(O)C(COP(=O)(OCC(Cl)(Cl)Cl)OCC(Cl)(Cl)Cl)O2)cc1F (stereo unspecified) :: active
COC(=O)c1cc(Br)c(C(=O)C(Cl)(Cl)Cl)[nH]1 :: inactive
CC(C)(C)N/N=C(\C(=O)Nc1nnc(S)[nH]1)C1C(=O)Nc2ccccc2[S+]1[O-] (stereo unspecified) :: inactive

Now examine the next entry.
Q: Which outcome did this test record for the compound O=C1NC2ON=C(c3ccccc3)C2C2ON=C(c3ccccc3)N12 (stereo unspecified) ?
Ans: inactive
